# measured-on: Serotonin 1 receptors; 5-HT1B & 5-HT1D (Homo sapiens) (UniProt P28222+P28221)
# assay-info: Binding affinity ratio was evaluated (5-HT1B / 5-HT1D receptor)
# Format: protein assay
# reported Ratio; entries follow
Note: the reply should be a number with no unit written.

Below, each entry is followed by its recorded Ratio result.
smiles-record	Ratio
O=C(Nc1cccc2ccccc12)N1CC=C(c2ccc3[nH]cc(CCN4CCCC4)c3c2)CC1	7.6
COc1ccc(NC(=O)N2CC=C(c3ccc4[nH]cc(CCN5CCCC5)c4c3)CC2)cc1	5.6
O=S(=O)(c1ccccc1)N1CC=C(c2ccc3[nH]cc(CCN4CCCC4)c3c2)CC1	21

So the reported Ratio for O=S(=O)(c1ccc(Cl)cc1)N1CC=C(c2ccc3[nH]cc(CCN4CCCC4)c3c2)CC1 , on Serotonin 1 receptors; 5-HT1B & 5-HT1D (Homo sapiens) (UniProt P28222+P28221), turned out to be 12

So the reported Ratio for COc1ccc(S(=O)(=O)N2CC=C(c3ccc4[nH]cc(CCN5CCCC5)c4c3)CC2)cc1 , on Serotonin 1 receptors; 5-HT1B & 5-HT1D (Homo sapiens) (UniProt P28222+P28221), turned out to be 13

So the reported Ratio for Cc1ccc(S(=O)(=O)N2CC=C(c3ccc4[nH]cc(CCN5CCCC5)c4c3)CC2)cc1 , on Serotonin 1 receptors; 5-HT1B & 5-HT1D (Homo sapiens) (UniProt P28222+P28221), turned out to be 12

So the reported Ratio for CN(C)CCc1c[nH]c2ccc(C3=CCN(C)CC3)cc12 , on Serotonin 1 receptors; 5-HT1B & 5-HT1D (Homo sapiens) (UniProt P28222+P28221), turned out to be 76

So the reported Ratio for O=C(NC12CC3CC(CC(C3)C1)C2)N1CC=C(c2ccc3[nH]cc(CCN4CCCC4)c3c2)CC1 , on Serotonin 1 receptors; 5-HT1B & 5-HT1D (Homo sapiens) (UniProt P28222+P28221), turned out to be 2.2

So the reported Ratio for C1=C(c2ccc3[nH]cc(CCN4CCCC4)c3c2)CCNC1 , on Serotonin 1 receptors; 5-HT1B & 5-HT1D (Homo sapiens) (UniProt P28222+P28221), turned out to be 10

So the reported Ratio for COc1ccc(NC(=S)N2CC=C(c3ccc4[nH]cc(CCN5CCCC5)c4c3)CC2)cc1 , on Serotonin 1 receptors; 5-HT1B & 5-HT1D (Homo sapiens) (UniProt P28222+P28221), turned out to be 9.3

So the reported Ratio for S=C(NC12CC3CC(CC(C3)C1)C2)N1CC=C(c2ccc3[nH]cc(CCN4CCCC4)c3c2)CC1 , on Serotonin 1 receptors; 5-HT1B & 5-HT1D (Homo sapiens) (UniProt P28222+P28221), turned out to be 5.9

So the reported Ratio for O=S(=O)(c1cccc2ccccc12)N1CC=C(c2ccc3[nH]cc(CCN4CCCC4)c3c2)CC1 , on Serotonin 1 receptors; 5-HT1B & 5-HT1D (Homo sapiens) (UniProt P28222+P28221), turned out to be 15

---

# reported Ki; entries follow
# measured-on: UniProt P28221
# Sequence (P28221 whole entry): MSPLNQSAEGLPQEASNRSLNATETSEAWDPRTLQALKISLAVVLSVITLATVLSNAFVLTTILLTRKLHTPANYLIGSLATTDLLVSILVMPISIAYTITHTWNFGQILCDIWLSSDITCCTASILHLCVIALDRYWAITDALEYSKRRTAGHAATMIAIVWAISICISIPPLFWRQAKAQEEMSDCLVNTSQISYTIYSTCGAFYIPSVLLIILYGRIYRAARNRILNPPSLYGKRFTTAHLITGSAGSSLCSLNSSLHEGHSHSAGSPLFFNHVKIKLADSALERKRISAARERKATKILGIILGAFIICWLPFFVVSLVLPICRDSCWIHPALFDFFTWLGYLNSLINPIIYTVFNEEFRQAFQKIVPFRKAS
# assay-info: Binding affinity was evaluated at the cloned human 5-hydroxytryptamine 1D receptor

smiles-record	measurement-name	measurement
O=S(=O)(c1ccc(Cl)cc1)N1CC=C(c2ccc3[nH]cc(CCN4CCCC4)c3c2)CC1	Ki	9.3 nM

Ki recorded for this compound, O=C(Nc1cccc2ccccc12)N1CC=C(c2ccc3[nH]cc(CCN4CCCC4)c3c2)CC1 , is 8.8 nM

Ki recorded for this compound, S=C(NC12CC3CC(CC(C3)C1)C2)N1CC=C(c2ccc3[nH]cc(CCN4CCCC4)c3c2)CC1 , is 29 nM

Ki recorded for this compound, COc1ccc(NC(=O)N2CC=C(c3ccc4[nH]cc(CCN5CCCC5)c4c3)CC2)cc1 , is 7.8 nM

Ki recorded for this compound, Cc1ccc(S(=O)(=O)N2CC=C(c3ccc4[nH]cc(CCN5CCCC5)c4c3)CC2)cc1 , is 12 nM

Ki recorded for this compound, O=S(=O)(c1cccc2ccccc12)N1CC=C(c2ccc3[nH]cc(CCN4CCCC4)c3c2)CC1 , is 27 nM

Ki recorded for this compound, O=S(=O)(c1ccccc1)N1CC=C(c2ccc3[nH]cc(CCN4CCCC4)c3c2)CC1 , is 21 nM

Ki recorded for this compound, COc1ccc(S(=O)(=O)N2CC=C(c3ccc4[nH]cc(CCN5CCCC5)c4c3)CC2)cc1 , is 11 nM

Ki recorded for this compound, C1=C(c2ccc3[nH]cc(CCN4CCCC4)c3c2)CCNC1 , is 74 nM
